target: hROCK-2 (Homo sapiens)
property: Ki

// solved cases for Ki follow
>  <chemSmiles>
COc1cccc([C@@H](C)NC(=O)c2ccc(-c3ccncc3)c(F)c2)c1

>  <property>
Ki

>  <experimentalResult>
< 0.05 µM

$$$$
>  <chemSmiles>
Cc1ccc([C@@H](C)NC(=O)c2ccc(-c3ccncc3)cc2)cc1

>  <property>
Ki

>  <experimentalResult>
0.05 to 0.5 µM

$$$$

Then there is this compound:
Item COc1cccc([C@@H](C)NC(=O)c2ccc(-c3ccncc3)cc2Cl)c1 has what recorded Ki?
< 0.05 µM

----------
Consider molecules characterized by their Ki with hROCK-2 (Homo sapiens).

>  <molecule>
Cc1cnccc1-c1ccc(C(=O)NC2CCCc3ccccc32)cc1 (stereo not drawn) [Example 160]

>  <Ki>
50 to 500 nM

$$$$

Form field: Ki recorded for CC(NC(=O)c1ccc(-c2ccncc2)cc1)c1cccs1 (stereo not drawn) [Example 72] with hROCK-2 (Homo sapiens) (enter value)
< 50 nM

----------
pKi: −log10 of the molar value.
Entries with their measured pKi, system hROCK-2 (Homo sapiens):

>  <compound>
COc1cccc(C(CN2CCCC2)NC(=O)c2ccc(-c3ccncc3)cc2)c1 (stereo not shown)

>  <pKi>
> 7.30

$$$$
>  <compound>
C[C@@H](NC(=O)c1ccc(-c2ccncc2)cc1)c1ccc(Cl)cc1

>  <pKi>
> 7.30

$$$$
>  <compound>
COc1cc(-c2ccncc2)ccc1C(=O)NC(CO)c1cc(Cl)cc(Cl)c1 (stereo not shown)

>  <pKi>
> 7.30

$$$$
>  <compound>
O=C(NC(Cn1ccnc1)c1ccccc1)c1ccc(-c2ccncc2)cc1 (stereo not shown)

>  <pKi>
> 7.30

$$$$
>  <compound>
C[C@@H](NC(=O)c1ccc(-c2ccncc2)cc1Cl)c1cccc2ccccc12

>  <pKi>
> 7.30

$$$$
>  <compound>
Cc1ccc(C(CO)NC(=O)c2ccc(-c3ccncc3)cc2)cc1C (stereo not shown)

>  <pKi>
> 7.30

$$$$
>  <compound>
COc1cccc([C@@H](C)NC(=O)c2ccc(-c3ccncc3)c(Cl)c2)c1

>  <pKi>
> 7.30

$$$$
>  <compound>
Cc1cnccc1-c1ccc(C(=O)N[C@H](C)c2ccc(Br)cc2)cc1

>  <pKi>
6.30 to 7.30

$$$$
>  <compound>
CN1CCN(CC(NC(=O)c2ccc(-c3ccncc3)cc2)c2ccccc2)CC1 (stereo not shown)

>  <pKi>
6.30 to 7.30

$$$$
>  <compound>
C[C@@H](NC(=O)c1ccc(-c2ccncc2)cc1)c1ccccc1F

>  <pKi>
> 7.30

$$$$

Can you look up pKi on hROCK-2 (Homo sapiens) for COCC(Cc1ccccc1)NC(=O)c1ccc(-c2ccncc2)cc1 (stereo not shown) ?
6.30 to 7.30

hROCK-2 (Homo sapiens) / pKi / C[C@@H](NC(=O)c1ccc(-c2ccncc2)cc1)c1cccc(C(F)(F)F)c1 : value?
> 7.30

----------
Target or system hROCK-2 (Homo sapiens, UniProt O75116): recorded Ki listed per item.

These recorded examples may help you get a feel for the data.
>  <compound>
COc1cc(-c2ccncc2)ccc1C(=O)N[C@H](C)c1ccc2ccccc2c1

>  <Ki>
50 to 500 nM

$$$$
>  <compound>
Cc1cnccc1-c1ccc(C(=O)N[C@H](C)c2cccc3ccccc23)cc1

>  <Ki>
< 50 nM

$$$$
>  <compound>
CC(NC(=O)c1ccc(-c2ccncc2)cc1)c1cccc(OCc2ccccc2)c1 (stereo not shown)

>  <Ki>
< 50 nM

$$$$
>  <compound>
COc1cccc([C@@H](C)NC(=O)c2ccc(-c3ccncc3)cc2F)c1

>  <Ki>
< 50 nM

$$$$
>  <compound>
Cc1cnccc1-c1ccc(C(=O)N[C@H](C)c2ccc(F)cc2)cc1

>  <Ki>
< 50 nM

$$$$
>  <compound>
COc1cc(-c2ccncc2)ccc1C(=O)NC(CO)c1cccc2ccccc12 (stereo not shown)

>  <Ki>
< 50 nM

$$$$

Hi! What's the reported Ki for COc1cccc([C@H](C)NC(=O)c2ccc(-c3ccncc3)cc2OC)c1 on hROCK-2 (Homo sapiens, UniProt O75116)?
50 to 500 nM

Give hROCK-2 (Homo sapiens, UniProt O75116) Ki for CC(NC(=O)c1ccc(-c2ccncc2)cc1)c1ccccn1 (stereo not shown)
50 to 500 nM

For the record COc1cc(-c2ccncc2)ccc1C(=O)N[C@@H](C)c1ccccc1 , what value of Ki is listed for hROCK-2 (Homo sapiens, UniProt O75116)?
50 to 500 nM

Provide the documented Ki with hROCK-2 (Homo sapiens, UniProt O75116) as the system for O=C(N[C@H](CCO)c1ccccc1)c1ccc(-c2ccncc2)cc1
Sequence (O75116 whole entry): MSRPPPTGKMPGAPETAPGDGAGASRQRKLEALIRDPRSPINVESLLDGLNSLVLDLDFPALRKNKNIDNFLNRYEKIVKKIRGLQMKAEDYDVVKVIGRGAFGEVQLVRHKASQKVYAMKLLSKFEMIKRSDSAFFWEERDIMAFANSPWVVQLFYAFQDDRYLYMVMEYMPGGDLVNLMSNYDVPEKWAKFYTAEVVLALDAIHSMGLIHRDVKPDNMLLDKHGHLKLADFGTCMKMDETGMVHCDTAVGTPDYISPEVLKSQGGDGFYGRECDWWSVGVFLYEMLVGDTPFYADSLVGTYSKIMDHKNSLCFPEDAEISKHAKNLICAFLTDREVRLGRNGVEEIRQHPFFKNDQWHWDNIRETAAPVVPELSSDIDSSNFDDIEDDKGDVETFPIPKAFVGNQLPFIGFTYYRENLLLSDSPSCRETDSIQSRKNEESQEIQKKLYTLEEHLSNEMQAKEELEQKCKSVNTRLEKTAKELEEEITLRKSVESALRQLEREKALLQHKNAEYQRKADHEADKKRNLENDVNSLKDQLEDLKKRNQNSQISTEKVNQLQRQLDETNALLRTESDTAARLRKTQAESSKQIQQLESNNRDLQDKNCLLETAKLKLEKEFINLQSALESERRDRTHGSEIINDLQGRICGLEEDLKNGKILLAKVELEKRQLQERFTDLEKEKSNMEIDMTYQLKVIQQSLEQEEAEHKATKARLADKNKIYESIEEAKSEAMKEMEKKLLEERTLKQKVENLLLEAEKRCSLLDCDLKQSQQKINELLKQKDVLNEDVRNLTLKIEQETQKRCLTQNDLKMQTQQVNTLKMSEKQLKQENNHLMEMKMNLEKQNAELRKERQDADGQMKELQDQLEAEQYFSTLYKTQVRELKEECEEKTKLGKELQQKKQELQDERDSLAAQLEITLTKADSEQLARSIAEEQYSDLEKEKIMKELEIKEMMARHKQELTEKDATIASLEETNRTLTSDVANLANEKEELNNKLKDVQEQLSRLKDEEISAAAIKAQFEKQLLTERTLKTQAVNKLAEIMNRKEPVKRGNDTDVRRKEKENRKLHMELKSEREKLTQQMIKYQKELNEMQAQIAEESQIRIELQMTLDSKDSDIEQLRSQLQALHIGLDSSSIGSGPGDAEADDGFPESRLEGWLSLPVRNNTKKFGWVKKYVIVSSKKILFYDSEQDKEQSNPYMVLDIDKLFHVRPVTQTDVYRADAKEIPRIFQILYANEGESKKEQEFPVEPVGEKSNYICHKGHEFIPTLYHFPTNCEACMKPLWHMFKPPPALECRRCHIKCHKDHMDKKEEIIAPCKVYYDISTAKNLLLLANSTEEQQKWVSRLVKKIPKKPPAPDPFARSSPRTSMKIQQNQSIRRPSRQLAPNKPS
< 50 nM

What reported Ki corresponds to COc1ccc(C(CN)NC(=O)c2ccc(-c3ccncc3)cc2)cc1 (stereo not shown) on hROCK-2 (Homo sapiens, UniProt O75116)?
50 to 500 nM

# value lookup — system hROCK-2 (Homo sapiens, UniProt O75116), readout Ki, item O=C(NC(c1ccccc1)[C@@H](O)c1ccccc1)c1ccc(-c2ccncc2)cc1 (stereo partly shown)
50 to 500 nM

----------
target: hROCK-2 (Homo sapiens)
Below is a list of entries, each paired with its recorded Ki value.

>  <compound>
COc1cc(-c2ccncc2)ccc1C(=O)N[C@H](C)c1cccc(C(F)(F)F)c1 [Example 132]

>  <testTarget>
hROCK-2 (Homo sapiens)

>  <Ki>
< 50 nM

$$$$
>  <compound>
O=C(NC(c1ccccc1)c1ccc(Cl)cc1)c1ccc(-c2ccncc2)cc1 (stereo not shown) [Example 49]

>  <testTarget>
hROCK-2 (Homo sapiens)

>  <Ki>
50 to 500 nM

$$$$
>  <compound>
COc1cccc([C@H](C)NC(=O)c2ccc(-c3ccncc3)c(C)c2)c1 [Example 102]

>  <testTarget>
hROCK-2 (Homo sapiens)

>  <Ki>
< 50 nM

$$$$
>  <compound>
O=C(N[C@@H](c1ccccc1)[C@H](O)c1ccccc1)c1ccc(-c2ccncc2)cc1 [Example 29]

>  <testTarget>
hROCK-2 (Homo sapiens)

>  <Ki>
50 to 500 nM

$$$$
>  <compound>
CCC(NC(=O)c1ccc(-c2ccncc2)cc1)c1ccccc1 (stereo not shown) [Example 75]

>  <testTarget>
hROCK-2 (Homo sapiens)

>  <Ki>
< 50 nM

$$$$

Write down the reported Ki of O=C(NC(CO)c1cccnc1)c1ccc(-c2ccncc2)cc1 (stereo not shown) [Example 39] , test system: hROCK-2 (Homo sapiens).
50 to 500 nM

----------
Reported pKi is given for each of the following compounds.
biological target: hROCK-2 (Homo sapiens)
pKi: −log10 of the molar value.

>  <compound>
COc1cccc([C@@H](C)NC(=O)c2ccc(-c3ccncc3C)cc2)c1 [Example 101]

>  <testTarget>
hROCK-2 (Homo sapiens)

>  <experimentalResult>
> 7.30

$$$$
>  <compound>
O=C(N[C@H](CO)Cc1c[nH]c2ccccc12)c1ccc(-c2ccncc2)cc1 [Example 14]

>  <testTarget>
hROCK-2 (Homo sapiens)

>  <experimentalResult>
6.30 to 7.30

$$$$
>  <compound>
COc1ccccc1C(CO)NC(=O)c1ccc(-c2ccncc2C)cc1 (stereo not shown) [Example 171]

>  <testTarget>
hROCK-2 (Homo sapiens)

>  <experimentalResult>
6.30 to 7.30

$$$$

# input for lookup
Find the recorded pKi belonging to COc1cccc([C@@H](C)NC(=O)c2ccc(-c3ccncc3F)cc2C)c1 [Example 246] and report it.
> 7.30
